Cited source: patent US20210032312A1

# targetUnderTest: T1, human CD8 alpha (CD8A) on primary human CD8+ T cells (human, UniProt P01732 22-235)
# T1 construct: whole, on cells; also called hCD8A
# T1 sequence (P01732 22-235): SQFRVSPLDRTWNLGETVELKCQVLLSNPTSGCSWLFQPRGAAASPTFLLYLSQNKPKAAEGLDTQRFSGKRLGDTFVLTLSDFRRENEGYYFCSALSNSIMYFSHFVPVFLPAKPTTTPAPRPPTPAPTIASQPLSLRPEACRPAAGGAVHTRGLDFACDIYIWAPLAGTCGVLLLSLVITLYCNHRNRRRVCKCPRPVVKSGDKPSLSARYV
# assaySummary: flow cytometry, human CD8+ T cells, 2 uM FN3
Human T-cell Binding 2 uM (MFI) listing for selected binders.
Reply with the number, then its unit.

>  <binder>
P282BR9P1357_G9 (designed binder, FN3 domain) LPAPKNLVVSRVTEDSARLSWPIASQIHSPFDSFLIQYQESEKVGEAIVLTVPGSERSYDLTGLKPGTEYTVSIYGVDVKYDIDSRPISSNPLSAIFTT

>  <Human T-cell Binding 2 uM (MFI)>
12700 MFI

$$$$

Attention now turns to another entry.
[Q] Requested field: Human T-cell Binding 2 uM (MFI). Item: P283AR9P1362_F8 (designed binder, FN3 domain) LPAPKNLVVSRVTEDSARLSWGYYHGHFDSFLIQYQESEKVGEAIVLTVPGSERSYDLTGLKPGTEYTVSIYGVDVKWEGNRPVASNPLSAIFTT
[A] 9200 MFI
